Source of measurements: PubChem BioAssay (NCI)

The molecules listed here are annotated with their growth.
Test system: OVCAR-4 ovarian
Assay: NCI-60 one-dose screen, 48 h (100 = growth as untreated, 0 = no growth, -100 = all killed)
Conditions: 10 µM unless noted
Compounds without any hit were thinned out: in the full panel of roughly 83,000, 20% have a hit.

{"columns": ["MOLECULE", "UNITS", "growth"],
 "data": [
  ["CCCS(=O)(=O)c1nc(NC2CC2)cc(-c2ccc3c(ccn3C3CC(C)(C)NC(C)(C)C3)c2)n1", "%", -70.6],
  ["Nc1c(C(=O)Nc2ccccc2)sc2nc3c(cc12)CN(Cc1ccccc1)CC3", "%", -14.7],
  ["Cc1ccc(OCCn2c(C)nn(-c3ccc(Cl)cc3)c2=O)cc1", "%", 98.9],
  ["COc1cc(/C=C2\\CCCC3=C2NC(C)=NC3c2cc(OC)c(OC)c(OC)c2)cc(OC)c1OC (configuration not stated)", "%", 42.2],
  ["O=S(=O)(NCCCNc1nccc(-c2c(-c3ccccc3)nc3sccn23)n1)c1ccc(F)cc1", "%", 36.2],
  ["CC(C)N(Cc1ccc(CN(C(=O)CCl)C(C)C)cc1)C(=O)CCl", "%", 26.4],
  ["COc1cc(OC)c(C(=O)/C=C/c2cccc(C#N)c2)c(OC)c1", "%", 18.1],
  ["O=S(=O)(NCCCNc1nccc(-c2c(-c3ccc(O)cc3)nc3sccn23)n1)c1ccc(F)cc1", "%", 14.9],
  ["O=C(/C=C/c1ccccc1)n1c(-c2ccc(Cl)cc2)nc2ccccc21", "%", 30],
  ["COc1cccc2cc(-c3cc4ccccc4[nH]3)c(=NC(=O)c3ccc(Cl)cc3)oc12", "%", 66.8],
  ["CCCCn1c(=O)c(C2CNC(=O)c3ccccc3N2)cc2ccccc21 (configuration not stated)", "%", 103],
  ["C=C1C(=O)O[C@H]2[C@H](O)[C@@H](C)CCC/C(C)=C/CC[C@@]3(C)O[C@@H]3C[C@@H]12", "%", 103]
]}
